Molecular target: CDK2/CycA2 (Homo sapiens)
Test: ADP-Glo kinase assay on CDK enzymatic activity, CDK2/CycA2
Assay type: biochemical
Settings: 10 concentrations from 10 μM, 4-fold, 60 min room temperature
parameterMeasured: IC50 (nM)
Express your answer in nM, writing the number without its unit.

Answered examples (5):
Query: Requested read-out IC50, target or system CDK2/CycA2 (Homo sapiens), entry CC(C)Nc1nc(C#N)cc2cnc(N[C@H]3CCCNC3)nc12
Result: 60

Query: Check CC(C)Nc1nc(C#N)cc2cnc(N[C@H]3C[C@@H](O)C3)nc12 too.
Result: 10

Query: Thanks! And CC(C)Nc1nc(C#N)cc2cnc(N[C@@H]3CCCNC3)cc12 ?
Result: 84

Query: How about CC(=O)N[C@@H]1CCC[C@H](C(=O)Nc2cc3c(NC(C)C)nc(C#N)cc3cn2)C1 ?
Result: 669

Query: Please give the result for CC1(Nc2nc(C#N)cc3cnc(N[C@H]4C[C@H](N)C4)nc23)CC1 too.
Result: 19

Others:
Query: Please state recorded IC50 (tested on CDK2/CycA2 (Homo sapiens)) of CC(C)Nc1nc(C(F)F)cc2cnc(N[C@H]3C[C@H](N)C3)cc12
Result: 6

Query: Lookup CC(=O)N[C@@H]1CCC[C@H](C(=O)Nc2cc3c(N4CC[C@@](C)(O)C4)nc(C#N)cc3cn2)C1
Result: 4510

Query: # iterate: CN[C@@H]1CC[C@H](Nc2cc3c(NC(C)C)nc(C#N)cc3cn2)C1
Result: 1080

====

Target: CDK5/p25NCK (Homo sapiens, UniProt Q00535)
Sequence (Q00535 whole entry, species assumed): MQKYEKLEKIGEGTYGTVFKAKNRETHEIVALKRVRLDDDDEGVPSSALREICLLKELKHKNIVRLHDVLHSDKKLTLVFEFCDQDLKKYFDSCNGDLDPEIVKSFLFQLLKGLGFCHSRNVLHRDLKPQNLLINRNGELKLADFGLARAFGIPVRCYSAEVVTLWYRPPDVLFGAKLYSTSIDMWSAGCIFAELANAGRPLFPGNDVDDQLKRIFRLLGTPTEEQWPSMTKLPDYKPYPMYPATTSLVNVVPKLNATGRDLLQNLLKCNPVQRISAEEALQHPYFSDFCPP
Sequence (Q15078 99-307 partner limits assumed, species assumed): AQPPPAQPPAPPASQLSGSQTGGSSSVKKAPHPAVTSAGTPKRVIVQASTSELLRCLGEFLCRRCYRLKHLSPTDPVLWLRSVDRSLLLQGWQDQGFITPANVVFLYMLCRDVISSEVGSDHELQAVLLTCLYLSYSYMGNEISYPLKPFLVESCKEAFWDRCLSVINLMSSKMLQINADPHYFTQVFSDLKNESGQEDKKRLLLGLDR
Test: ADP-Glo kinase assay on CDK enzymatic activity, CDK5/p25NCK
Format: biochemical
Conditions: 10 concentrations from 10 μM, 4-fold, 60 min room temperature
Please respond with yes (1) when measured IC50 is strictly beneath 200 nM, and with no (0) in all other cases.

Query: Decide: IC50 of CC(=O)N[C@@H]1CCC[C@H](C(=O)Nc2cc3c(NC(CCO)CCO)nc(C#N)cc3cn2)C1 strictly below 200 nM?
Result: no (0)

Further cases:
Query: Please determine if CC(C)Nc1nc(C#N)cc2cnc(NC3CC4(CNC4)C3)nc12 is below 200 nM in terms of IC50.
Result: no (0)

Query: Okay, and CC(C)Nc1nc(C#N)cc2cnc(N[C@H]3CC[C@H](N)C3)cc12 ?
Result: yes (1)

Query: Do the same for CCNc1nc(C#N)cc2cnc(N[C@H]3CCCNC3)cc12 please
Result: yes (1)

Query: What about this compound? FC(F)c1cc2cnc(N[C@H]3CCCNC3)cc2c(N[C@@H]2CCOC2)n1
Result: yes (1)

Query: Same lookup for CC(C)(C)Nc1nc(C(F)F)cc2cnc(NC3CCNCC3)nc12 , please.
Result: no (0)

Query: Now consider CC(C)Nc1nc(C#N)cc2cnc(N[C@H]3CC[C@H](O)C3)nc12 and answer again.
Result: yes (1)

Query: Then what about the compound CC(=O)N[C@@H]1CCC[C@H](C(=O)Nc2cc3c(N4CC[C@@](C)(O)C4)nc(C#N)cc3cn2)C1 ?
Result: no (0)

Query: Same read-out for CC(C)Nc1nc(C#N)cc2cnc(N[C@H]3CCCN(C)C3)cc12 ?
Result: no (0)

Query: Request: CC(C)Nc1nc(C#N)cc2cnc(NC3CCNCC3)nc12
Result: no (0)

Query: Next up: N#Cc1cc2cnc(N[C@H]3CC[C@H](N)C3)cc2c(NCC2(C#N)CCOCC2)n1
Result: no (0)

Query: Record: N#Cc1cc2cnc(N[C@H]3CCCNC3)cc2c(N[C@H]2CCOC2)n1
Result: no (0)

Query: Further, for FC(F)c1cc2cnc(N[C@H]3CCCNC3)cc2c(O[C@@H]2CCOC2)n1 ?
Result: yes (1)

====

Target: CDK9/CycT1 (Homo sapiens)
Assay: ADP-Glo kinase assay on CDK enzymatic activity, CDK9/CycT1
Format: biochemical
Settings: 10 concentrations from 10 μM, 4-fold, 60 min room temperature
parameterMeasured: IC50
I'd appreciate it if you wrote the number followed by its unit.

Example entries and their recorded answers appear below.
Query: Fill blank: measured IC50 of the molecule CC1(Nc2nc(C#N)cc3cnc(N[C@H]4C[C@](C)(N)C4)cc23)CC1 is ____.
Result: 3 nM

Query: Next entry: CC(C)Nc1nc(C#N)cc2cnc(N[C@H]3C[C@@H](O)C3)nc12
Result: 2 nM

Note: attention shifts to another entry.
Query: Please give the measured IC50 for this molecule: CC(C)Nc1nc(C#N)cc2cnc(N[C@@H]3CCCC[C@H]3O)cc12
Result: 22 nM

====

A collection of compounds and their measured IC50
Target: CDK5/p25NCK (Homo sapiens)
Assay: ADP-Glo kinase assay on CDK enzymatic activity, CDK5/p25NCK
Type: biochemical
Conditions: 10 concentrations from 10 μM, 4-fold, 60 min room temperature
Reply numerically in nM, unit not repeated.

Solved entries (count: 2):
Query: Give the measured IC50 of CC(C)Nc1nc(C#N)cc2cnc(N[C@@H]3CCCNC3)cc12 [Compound 39] .
Result: 161

Query: Consider next the compound CC(C)Nc1nc(C(F)F)cc2cnc(N[C@H]3CCCNC3)cc12 [Compound 54] in the same way.
Result: 10

Please turn your attention to the following entry.
Query: Find the recorded IC50 belonging to CC(=O)N[C@@H]1CCC[C@H](C(=O)Nc2cc3c(NC(C)C)nc(CCO)cc3cn2)C1 [Compound 14] and report it.
Result: 187

====

Below is a list of entries, each paired with its recorded IC50 value.
Target: CDK9/CycT1 (Homo sapiens)
Assay: Off-chip mobility shift assay (MSA) on CDK9/CycT1
Type: biochemical
Design: Full-length human CDK9 [1-372(end) amino acids of; host or cells: baculovirus expression system
Conditions: 4-point concentration (0.0016, 0.008, 0.04, 0.2 uM), ATP 10 μM, reaction time 5 hours, read-out: CDK9/CycT1/nM (inhibitory activity)
Numeric answer only, unit nM assumed.

Example cases with answers are listed next.
Query: Find the recorded IC50 belonging to CC(=O)N[C@H]1CC[C@H](CNc2ncc3cc([C@@H](C)O)nc(NC(C)C)c3n2)CC1 and report it.
Result: 97

Query: Next compound: CC(C)Nc1nc([C@@H](C)O)cc2cnc(N[C@H]3CC[C@H](NC4COC4)CC3)nc12
Result: 12

Others:
Query: So what does the record say about IC50 for CC(C)Nc1nc(CO)cc2cnc(N[C@H]3CC[C@H](O)CC3)nc12 ?
Result: 17

====

Biological target: CDK9/CycT1 (Homo sapiens, UniProt P50750)
Sequence (P50750 whole entry): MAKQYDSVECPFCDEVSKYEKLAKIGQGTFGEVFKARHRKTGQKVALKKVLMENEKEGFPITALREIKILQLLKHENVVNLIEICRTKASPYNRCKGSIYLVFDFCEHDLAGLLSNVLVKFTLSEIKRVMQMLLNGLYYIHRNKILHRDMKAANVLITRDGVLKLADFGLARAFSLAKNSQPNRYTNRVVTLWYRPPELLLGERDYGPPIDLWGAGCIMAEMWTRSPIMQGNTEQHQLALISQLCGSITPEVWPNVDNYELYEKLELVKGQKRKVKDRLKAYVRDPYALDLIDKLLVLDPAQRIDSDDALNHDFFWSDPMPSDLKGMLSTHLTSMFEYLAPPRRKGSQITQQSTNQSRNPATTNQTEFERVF
Sequence (O60563 whole entry partner): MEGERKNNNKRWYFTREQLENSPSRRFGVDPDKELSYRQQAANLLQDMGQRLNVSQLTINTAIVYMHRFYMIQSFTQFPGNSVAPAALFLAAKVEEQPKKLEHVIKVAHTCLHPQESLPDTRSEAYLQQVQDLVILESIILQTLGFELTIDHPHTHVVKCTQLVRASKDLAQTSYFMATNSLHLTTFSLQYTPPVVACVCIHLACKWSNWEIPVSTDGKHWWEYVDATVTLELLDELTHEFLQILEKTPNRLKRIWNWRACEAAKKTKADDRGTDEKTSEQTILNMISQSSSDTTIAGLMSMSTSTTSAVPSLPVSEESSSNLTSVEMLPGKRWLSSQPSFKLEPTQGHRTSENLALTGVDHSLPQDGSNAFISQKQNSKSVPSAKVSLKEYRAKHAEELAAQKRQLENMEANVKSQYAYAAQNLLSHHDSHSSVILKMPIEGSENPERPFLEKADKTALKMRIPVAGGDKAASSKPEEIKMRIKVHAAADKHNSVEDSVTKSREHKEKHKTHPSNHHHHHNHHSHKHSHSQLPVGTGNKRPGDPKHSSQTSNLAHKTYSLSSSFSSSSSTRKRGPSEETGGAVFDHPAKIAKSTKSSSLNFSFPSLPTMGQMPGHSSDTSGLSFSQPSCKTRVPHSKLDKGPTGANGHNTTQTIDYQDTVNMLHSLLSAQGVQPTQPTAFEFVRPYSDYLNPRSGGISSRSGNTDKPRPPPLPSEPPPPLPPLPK
Assay: ADP-Glo kinase assay on CDK enzymatic activity, CDK9/CycT1
Type: biochemical
Conditions: 10 concentrations from 10 μM, 4-fold, 60 min room temperature
parameterMeasured: IC50 (nM)
Supply the numeric figure in nM, leaving out any unit text.

Before answering, review these 5 worked examples.
Query: Look up IC50: CC(C)Nc1nc(C#N)cc2cnc(N[C@@H]3CNCC(F)(F)C3)cc12 [Compound 43]
Result: 2

Query: Also CC(C)Nc1nc(C#N)cc2cnc(N[C@H]3CCCNC3)cc12 [Compound 38] , if possible.
Result: 2

Query: Follow-up item: CC(C)Nc1nc(C#N)cc2cnc(N[C@H]3C[C@@]4(CCN4)C3)nc12 [Compound C37]
Result: 2

Query: Entry CC1(Nc2nc(C#N)cc3cnc(N[C@H]4CCCNC4)cc23)CC1 [Compound 148] please
Result: 1

Query: One more compound: CC(C)(C)Nc1nc(C#N)cc2cnc(N[C@H]3CC[C@H](N)C3)cc12 [Compound 34]
Result: 2

Continuing:
Query: Using the record for CC(C)Nc1nc(C#N)cc2cnc(N[C@H]3CC[C@H](C)NC3)nc12 [Compound 107] , report its IC50.
Result: 18

Query: Then what about the compound CC(C)CNc1nc(C#N)cc2cnc(N[C@H]3C[C@H](N)C3)nc12 [Compound C25] ?
Result: 1

Query: What would you report for CC(=O)N[C@@H]1CCC[C@H](C(=O)Nc2cc3c(NC(C)(C)C)nc(C#N)cc3cn2)C1 [Compound 15] ?
Result: 1

====

Each entry below carries its reported IC50.
Target: CDK9/CycT1 (Homo sapiens, UniProt P50750)
Assay: ADP-Glo kinase assay on CDK enzymatic activity, CDK9/CycT1
Assay type: biochemical
Settings: 10 concentrations from 10 μM, 4-fold, 60 min room temperature
Please state the figure in nM; there is no need to write the unit.

Query: Which IC50 is reported with CDK9/CycT1 (Homo sapiens, UniProt P50750) for this entry: CC(C)Nc1nc(C#N)cc2cnc(N[C@H]3CCCOC3)nc12 ?
Result: 2

Query: Same again, this time with CC(C)(C)Nc1nc(C(F)F)cc2cnc(NC3CCNCC3)nc12
Result: 4

Query: Moving on to CC(C)Nc1nc(C#N)cc2cnc(Nc3cc(CS(C)(=N)=O)ccn3)cc12 (stereo not drawn)
Result: 4

Query: # repeat for CCNc1nc(C#N)cc2cnc(N[C@H]3CCCNC3)cc12
Result: 3

Query: Continue with CC(C)Nc1nc(C#N)cc2cnc(N[C@H]3C[C@H](N)C3)cc12
Result: 1

Query: Repeat with CC(C)Nc1nc(C(F)F)c(C#N)c2cnc(N[C@H]3CCCNC3)nc12
Result: 69

Query: COC[C@@H](C)Nc1nc(C#N)cc2cnc(N[C@H]3C[C@H](N)C3)nc12 ?
Result: 1

Query: Now the same for CC(C)Nc1nc(C#N)cc2cnc(N[C@@H]3CCCC[C@@H]3O)cc12
Result: 14

Query: CC(C)Nc1nc(C#N)cc2cnc(N[C@]3(C)C[C@@H](O)C3)nc12 , same question.
Result: 8

Query: Item: CCOc1nc(C(F)F)cc2cnc(N[C@H]3C[C@H](N)C3)cc12
Result: 2

Query: Another compound to check: CC(C)Nc1nc(C#N)cc2cnc(N[C@@H]3CCCNC3)cc12
Result: 2

Query: Same lookup for C#Cc1cc2cnc(NC(=O)[C@H]3CCC[C@@H](NC(C)=O)C3)cc2c(NC(C)C)n1 , please.
Result: 13

Query: Then this compound: CC(C)Nc1nc(C#N)cc2cnc(NC3CCNCC3)nc12
Result: 9

Query: Another compound to check: CC1(Nc2nc(C#N)cc3cnc(N[C@H]4CC[C@H](N)C4)cc23)CC1
Result: 2

Query: Next: N#Cc1cc2cnc(N[C@H]3CCCNC3)cc2c(OC2CCC2)n1
Result: 4

Query: # iterate: CC(C)Nc1nc(C#N)cc2cnc(N[C@H]3CC[C@H](N(C)C)CC3)nc12
Result: 3

Query: Now give it for CC(C)Nc1nc(C#N)cc2cnc(N[C@H]3CC[C@@H](O)CC3)nc12 too.
Result: 9

Query: Quick one: CC(C)Oc1nc(C#N)cc2cnc(N[C@H]3C[C@@H](N)C3)cc12
Result: 2

Query: // same read-out, input: CC(C)(C)Nc1nc(C(F)F)cc2cnc(N[C@H]3[C@@H]4CNC[C@@H]43)nc12
Result: 9

Query: // query: CC(C)Nc1nc(C(F)F)cc2cnc(Nc3cc(CS(C)(=N)=O)ccn3)cc12 (stereo not drawn)
Result: 2

Query: What about this compound? CC(C)Nc1nc(C#N)cc2cnc(N[C@@H]3CCNC3=O)nc12
Result: 26

Query: Please answer likewise for N#Cc1cc2cnc(N[C@H]3CCCNC3)cc2c(OC2CC2)n1
Result: 14

Query: And then CC(C)Nc1nc(C#N)cc2cnc(N[C@@H]3CCCNCC3)nc12 , what is it?
Result: 12

Query: What do you have for N#Cc1cc2cnc(N[C@H]3C[C@H](N)C3)nc2c(N[C@@H]2CCCOC2)n1 ?
Result: 1

Query: Next up: CC(C)Nc1nc(C#N)cc2cnc(N[C@H]3CC[C@H](N4CCOCC4)CC3)nc12
Result: 2

Query: Cool, now CC(C)Nc1nc(C#N)cc2cnc(N[C@H]3CCCNC3)nc12
Result: 1

Query: Similarly, N#Cc1cc2cnc(N[C@H]3CCCNC3)cc2c(C2=CCCC2)n1 ?
Result: 7
